Values from PubChem BioAssay (NCI)

- Test system: MOLT-4 leukemia
- Measurement protocol: NCI tumour cell line growth inhibition, 48 h
# Lookup of reported TGI keyed by entry
Value type: TGI

molecule=CCN(CC)CCOc1ccccc1-n1c(C)ccc1-c1ccccc1 observed_result="33.3 µM"
molecule=COc1cc(S(=O)(=O)Nc2ccc(-c3csc(/N=C\c4cccc(Oc5ccccc5)c4)n3)cc2)ccc1Cl observed_result="> 100 µM"
molecule=COC(OC)[C@@H]1OC[C@H](n2ccc(=O)[nH]c2=O)[C@H]1O observed_result="> 100 µM"
molecule="NC(=S)N/N=C1/C(=O)N(c2ccccc2)C(=O)C1C(=O)Nc1ccccc1 (configuration not stated)" observed_result="> 100 µM"
molecule="C/C(=N\\NC(N)=S)C(CN1CCCCC1)C(C1=C(O)c2ccccc2OC1)c1ccccc1 (configuration not stated)" observed_result="> 100 µM"
molecule="O=C(O)C(C(F)(F)F)C(F)(F)F (tested in a mixture with another compound)" observed_result="> 100 µM"
molecule=CN1CCN(c2ccc3nc(-c4ccc5nc(CCCc6ccc(N(CCCl)CCCl)cc6)[nH]c5c4)[nH]c3c2)CC1 observed_result="> 100 µM"
molecule="COc1ccc2c3c1OC1C4(CCC5C(C2)N(CC2CC2)CCC351)OCCO4 (configuration not stated)" observed_result="> 100 µM"
molecule=Nc1csc(-c2scc3c2OCCO3)c1N observed_result="> 100 µM"
molecule="NC1=C(/C(N)=N/O)C(c2ccccc2)c2ccc3ccccc3c2O1 (configuration not stated)" observed_result="> 100 µM"
molecule="CCOC1Oc2ccccc2-c2nc(N)ncc21 (configuration not stated)" observed_result="> 100 µM"
molecule=CCOC(=O)C1=C(Nc2cccc3ccccc23)OCC1=O observed_result="> 100 µM"
molecule=CCCCc1n(Cc2ccc3ccccc3n2)cc[n+]1Cc1ccc2ccccc2c1 observed_result="3.61 µM"
molecule=O=C1Nc2cc(-c3ccc(O)cc3)ccc2/C1=C/c1ccc[nH]1 observed_result="> 32.5 µM"
molecule=COc1ccc(OC)c2c1ccc1c(C)c3ccccc3c(C)c12 observed_result="> 100 µM"
molecule="OC1CCSc2ccccc21 (configuration not stated)" observed_result="> 100 µM"
molecule="CC(C)C(=O)CC(c1ccc(Br)cc1)N1N=C(C(C)C)CC1c1ccc(Br)cc1 (configuration not stated)" observed_result="> 100 µM"
molecule="O=C(Cc1ccccc1)N/N=C(/c1nc2ccc([N+](=O)[O-])cc2[nH]c1=O)C(O)c1ccco1 (configuration not stated)" observed_result="> 100 µM"
molecule=Oc1cc(F)cc2cccnc12 observed_result="1.97 µM"
molecule="CCC1C[N+]2=C(c3cc(OC)c(OC)cc3CC2)c2c1cc1n2CCc2cc(OC)c(OC)cc2-1 (configuration not stated)" observed_result="23.6 µM"
molecule=O=c1oc2ccccc2c(O)c1Cc1ccccc1Cc1c(O)c2ccccc2oc1=O observed_result="> 100 µM"
molecule=CNc1cc(Cl)ccc1C(=O)N1CCC[C@H]1CO observed_result="> 100 µM"

* * *

- Tested on: HCT-116 colon
- Measurement protocol: NCI tumour cell line growth inhibition, 48 h
Where a SMILES comes first, the peptide text is derived from it. Peptide text beside a SMILES is read from it. [ ]: non-standard residue; d: D form. The star is where a group is joined. * marks the point of attachment. Hyp = O=C(O)[CH]1C[CH](O)CN1; Cbz = O=C(OCc1ccccc1)*
Value type: TGI

compound=COc1cc2c(cc1OC)C(Cc1cc(Br)c(OC)c(OC)c1)=[N+](C)CC2 observed_result="> 100 µM"
compound=c1cc2nnc1SCCSCCCSCCS2 observed_result="> 100 µM"
compound=CC1=CC[C@@H]2C(=O)C=CC=C[C@H]12.[C-]#[O+].[C-]#[O+].[C-]#[O+].[Fe] observed_result="> 100 µM"
compound=CCOC(=O)c1nc2ccc(C(F)(F)F)cc2nc1NCc1ccc(F)cc1 observed_result="> 100 µM"
compound=CCCCCCCCCCCc1cc(=O)c2c(O)cccc2o1 observed_result="> 100 µM"
compound="COC(=O)C(Br)(C(=O)OC)C(Br)C(Br)C(Br)c1ccccc1 (configuration not stated)" observed_result="3.01 µM"
compound="OC1CCSc2ccccc21 (configuration not stated)" observed_result="> 100 µM"
compound=Nc1ccc(Cc2ccc(N)c(C(=O)O)c2)cc1C(=O)O observed_result="> 100 µM"
compound=CC(=O)OCc1ncccc1C(OC(C)=O)OC(C)=O observed_result="> 100 µM"
compound=N#CC(C#N)=C(N)/C(C#N)=C/c1ccc(O)c(O)c1 observed_result="> 100 µM"
compound=CN(C)C(=S)/N=C(\N)N(C)C observed_result="> 100 µM"
compound=C#CCOCn1cnc2c(N)ncnc21 observed_result="> 100 µM"
compound="CCOC(=O)CCC(NC(=O)CNC(=O)CNC(=O)C(CCC(=O)OCC)NC(=O)C(CCC(=O)OCC)NC(=O)C(CCC(=O)OCC)NC(=O)OCc1ccccc1)C(=O)NC(CCC(=O)OCC)C(=O)NC(CCC(=O)OCC)C(=O)OCC (configuration not stated) (Cbz-E(OEt)E(OEt)E(OEt)GGE(OEt)E(OEt)E(OEt)-OEt; configuration not given here)" observed_result="> 75 µM"
compound="NC(=O)CNC(=O)C1CC(O)CN1C(=O)C1CCCN1C(=O)OCc1ccccc1 (stereo not drawn) (Cbz-Pro-[Hyp]-Gly-NH2; configuration not given here)" observed_result="> 100 µM"
compound=COc1ncc(-c2ccc3ncnc(Nc4cccc(Cl)c4)c3c2)cc1NS(C)(=O)=O observed_result="10.9 µM"
compound=O=C(NN1CCCCC1)c1cc2cc(CCl)ccc2oc1=O observed_result="38 µM"
compound="C=C(C)C1Cc2cc(C(C)=O)ccc2O1 (configuration not stated)" observed_result="> 100 µM"
compound=NC(=S)NN=C1Cc2ccccc2C1 observed_result="> 100 µM"
compound=CCOc1ccc2c(c1)[n+]([O-])c(-c1ccc([N+](=O)[O-])cc1)c(N)[n+]2[O-] observed_result="> 100 µM"
compound=O=C(/C=C/c1ccc(O)c(O)c1)O[C@H]1CCCC[C@@H]1OC(=O)/C=C/c1ccc(O)c(O)c1 observed_result="19 µM"
compound=CN(CCCNC(=O)c1nn(-c2ccccc2)c2c1Cc1ccccc1-2)CCCNC(=O)c1nn(-c2ccccc2)c2c1Cc1ccccc1-2 observed_result="2.87 µM"
compound=C=C(CN(C)C)C(=O)c1ccccc1Cl observed_result="34 µM"
